For each of the molecules below, state its viability, T/C.
system: 519858-162-T-J1-PDC complex spheroid viability; test: Anticancer human tumor 519858-162-T-J1-PDC patient-derived colon adenocarcinoma cell line growth inhibition [GQUAD]; conditions: second compound 0.1 µM; first compound 1 µM; stronger effect = lower value
Numbers only, in %.

1) C=CCn1c(=O)c2cnc(Nc3ccc(N4CCN(C)CC4)cc3)nc2n1-c1cccc(C(C)(C)O)n1 + CN(C)c1ccc(Nc2c3ccc(NC(=O)CCN4CCCC4)cc3nc3cc(NC(=O)CCN4CCCC4)ccc23)cc1 : 64.6
2) CC(C)(O)C1CCC(Nc2ccc3ncc(-c4cccc(C(F)(F)F)c4)n3n2)CC1 (stereo unspecified) + Cc1[nH]c2ccc(F)cc2c1-c1nc2c3cccnc3c3ncccc3c2[nH]1 : 120
3) COc1ccc([C@@H](O)c2cc(-c3ncnc4cc(N5CCOCC5)ccc34)c(F)cc2Cl)nn1 + CN(C)c1ccc(Nc2c3ccc(NC(=O)CCN4CCCC4)cc3nc3cc(NC(=O)CCN4CCCC4)ccc23)cc1 : 148
4) C#Cc1c(F)ccc2cc(O)cc(-c3ncc4c(N5CC6CCC(C5)N6)nc(OCC56CCCN5CC(F)C6)nc4c3F)c12 (stereo unspecified) + Cc1[nH]c2ccc(F)cc2c1-c1nc2c3cccnc3c3ncccc3c2[nH]1 : 83.9
5) COc1ccc([C@@H](O)c2cc(-c3ncnc4cc(N5CCOCC5)ccc34)c(F)cc2Cl)nn1 + Cc1[nH]c2ccc(F)cc2c1-c1nc2c3cccnc3c3ncccc3c2[nH]1 : 72.6

Answer with viability, T/C of O=c1[nH]cc(F)c(=O)[nH]1 + Cc1[nH]c2ccc(F)cc2c1-c1nc2c3cccnc3c3ncccc3c2[nH]1 measured for 519858-162-T-J1-PDC complex spheroid viability.
98.6

---

tested on: 519858-162-T-J1-PDC complex spheroid viability; test: Anticancer human tumor 519858-162-T-J1-PDC cell line growth inhibition [GQUAD]; conditions: second compound 0.1 µM; first compound 1 µM; stronger effect = lower value;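 also: spheroids exposed to compounds for 7 days; 100% = DMSO vehicle control viability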
PROPERTY: viability, T/C (%)
Answers are plain numbers, in %.

1. Nc1ccn(C2OC(CO)C(O)C2(F)F)c(=O)n1 (stereo unspecified) + Cc1[nH]c2ccc(F)cc2c1-c1nc2c3cccnc3c3ncccc3c2[nH]1 : 71
2. COc1cccc2c1C(=O)c1c(O)c3c(c(O)c1C2=O)CC(O)(C(=O)CO)CC3OC1CC(N)C(O)C(C)O1 (stereo unspecified) + Cc1cnc(CNC(=O)c2c(=O)c3ccc(N4CCCN(C)CC4)nc3n3c2sc2ccccc23)cn1 : 79.1
3. COc1cc(C2c3cc4c(cc3C(OC3OC5COC(C)OC5C(O)C3O)C3COC(=O)C23)OCO4)cc(OC)c1O (stereo unspecified) + CN(C)c1ccc(Nc2c3ccc(NC(=O)CCN4CCCC4)cc3nc3cc(NC(=O)CCN4CCCC4)ccc23)cc1 : 94.3
4. CC(=O)O[C@H]1C(=O)[C@@]2(C)[C@H]([C@H](OC(=O)c3ccccc3)[C@]3(O)C[C@H](OC(=O)[C@H](O)[C@@H](NC(=O)c4ccccc4)c4ccccc4)C(C)=C1C3(C)C)[C@]1(OC(C)=O)CO[C@@H]1C[C@@H]2O + Cc1[nH]c2ccc(F)cc2c1-c1nc2c3cccnc3c3ncccc3c2[nH]1 : 98.9
5. CC1COCCN1c1cc(C2(S(C)(=N)=O)CC2)nc(-c2ccnc3[nH]ccc23)n1 (stereo unspecified) + Cc1cnc(CNC(=O)c2c(=O)c3ccc(N4CCCN(C)CC4)nc3n3c2sc2ccccc23)cn1 : 59.8

# return recorded viability, T/C for entry COc1ncnc(C2CC2)c1-c1ncc2cnn(Cc3ccc(-c4nc(C(F)(F)F)cn4C(C)C)cc3)c2n1 + CN(C)c1ccc(Nc2c3ccc(NC(=O)CCN4CCCC4)cc3nc3cc(NC(=O)CCN4CCCC4)ccc23)cc1
75.6

Ref: PubChem BioAssay AID2060507
